- Read-out: Cytochrome P450 (CYP1A2), CYP1A2 (gene 1544)
- test method notes: LTEA_HepaRG_CYP1A2: Life Technologies and Expression Analysis (LTEA) Assay for Cytochrome P450 (CYP1A2) using HepaRG (AID 2283479)
- experimental setup: mRNA level, 48 h; actives raise or lower the signal
Active and inactive are the calls of the source. How the source made its calls: active means hit-call score of the fitted dose curve at least 0.9, where 1 is the maximum; inactive means score below 0.9.
Select the matching outcome among active, inactive

Some solved cases for reference:
[
  {
    "molecule": "CCCC(CCC)C(=O)O",
    "group": "inactive"
  },
  {
    "molecule": "O=S1(=O)CCCO1",
    "group": "inactive"
  },
  {
    "molecule": "OC[C@H]1O[C@@H]2O[C@H]3[C@H](O)[C@@H](O)[C@@H](O[C@H]4[C@H](O)[C@@H](O)[C@@H](O[C@H]5[C@H](O)[C@@H](O)[C@@H](O[C@H]6[C@H](O)[C@@H](O)[C@@H](O[C@H]7[C@H](O)[C@@H](O)[C@@H](O[C@H]1[C@H](O)[C@H]2O)O[C@@H]7CO)O[C@@H]6CO)O[C@@H]5CO)O[C@@H]4CO)O[C@@H]3CO",
    "group": "inactive"
  },
  {
    "molecule": "NNC(=O)c1ccncc1",
    "group": "inactive"
  },
  {
    "molecule": "OCc1ccccc1",
    "group": "inactive"
  },
  {
    "molecule": "CCCOc1ccc(S(=O)(=O)N2CCN(CC)CC2)cc1-c1nc2c(CC)n(Cc3ccccn3)nc2c(=O)[nH]1",
    "group": "active"
  },
  {
    "molecule": "CNC(C)=O",
    "group": "inactive"
  },
  {
    "molecule": "CC(C)CC(C)O (stereo not drawn)",
    "group": "active"
  }
]

Exercise: Assay outcome for CCCCCOC(C)=O : what was it?
Solution: inactive

Exercise: So what was the verdict on O=C(O)c1cccc(C[C@@H]2COc3ccc(OCc4nc5cc(F)ccc5s4)cc3[C@@H]2O)c1 in this test?
Solution: inactive

Exercise: Please indicate how the test categorized OCCOCCOCCO .
Solution: inactive

Exercise: So what was the verdict on Cc1nccn1-c1ccc(Sc2cccc(C3(C(N)=O)CCOCC3)c2)cc1 in this test?
Solution: active

Exercise: Returns: the outcome recorded for Cc1ncc([C@@H](CCCCCCc2ccc3c(n2)NCCC3)CC(=O)O)cn1 in this assay.
Solution: inactive

Exercise: Given CC(=O)c1ccccc1 , state the outcome it received in this test.
Solution: inactive

Exercise: // return assay outcome for Cc1nc(-c2ccccn2)ncc1C(=O)Nn1cc(C)c2cc(F)ccc21
Solution: inactive

Exercise: I'd appreciate the recorded outcome for CC(C)c1nnc2ccc(-c3ocnc3-c3cc(F)ccc3F)cn12 from this test.
Solution: inactive

Exercise: Can you look up the reported call for CCCCCCCC/C=C\CCCCCCCC(=O)OC[C@@H](O)[C@H]1OC[C@H](O)[C@H]1O for me?
Solution: inactive
